Would you mind telling me the reported pIC50 of each entry?
# experimental_system: Cdk4/CyclinD1 (Homo sapiens (Human), UniProt P11802)
# Sequence (P11802 whole entry): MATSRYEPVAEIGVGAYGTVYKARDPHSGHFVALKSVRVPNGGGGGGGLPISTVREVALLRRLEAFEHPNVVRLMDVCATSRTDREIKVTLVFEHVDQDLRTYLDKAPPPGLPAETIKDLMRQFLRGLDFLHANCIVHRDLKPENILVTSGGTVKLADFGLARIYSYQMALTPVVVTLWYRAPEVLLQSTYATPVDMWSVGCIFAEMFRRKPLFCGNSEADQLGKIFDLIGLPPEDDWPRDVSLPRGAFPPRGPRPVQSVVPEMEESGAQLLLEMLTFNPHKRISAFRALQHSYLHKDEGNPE
# Sequence (P24385 whole entry partner): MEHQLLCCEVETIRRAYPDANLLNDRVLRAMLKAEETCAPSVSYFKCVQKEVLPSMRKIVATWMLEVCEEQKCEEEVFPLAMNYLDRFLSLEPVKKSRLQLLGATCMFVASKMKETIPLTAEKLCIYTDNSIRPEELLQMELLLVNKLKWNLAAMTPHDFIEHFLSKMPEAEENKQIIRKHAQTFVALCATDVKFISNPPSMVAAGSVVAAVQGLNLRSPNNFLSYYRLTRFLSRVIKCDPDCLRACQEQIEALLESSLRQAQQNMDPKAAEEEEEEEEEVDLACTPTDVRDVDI
# assay_remarks: Cdk4 kinase inhibition assay with recombinant Cdk4/CyclinD1, Rb substrate, [33P]-ATP filter plate
# conditions: 25 μM ATP, read-out: Cdk 4 IC50
# Protocol: The Cdk4 and Cdk6 inhibitory activity of the compounds is measured with a kinase inhibition assay using recombinant Cdk4/CyclinD1 or Cdk6/CyclinD3 protein complexes. The protein substrate used in the assay is the retinoblastoma protein (Rb). […] The amount of the phosphorylated Rb is determined with a TopCount (PerkinElmer). The IC50 of a compound is determined by nonlinear regression curve fitting using software program Prism 5 (GraphPad Software).
Answers are plain numbers, as −log10 of the molar value.

In the examples that follow, each entry is paired with its recorded pIC50.
given_smiles	experimental_system	pIC50
CN(C)C1CCN(S(=O)(=O)c2ccc(Nc3ncc4c5ccncc5n(C5CCCC5)c4n3)nc2)CC1	Cdk4/CyclinD1 (Homo sapiens (Human), UniProt P11802)	7.67
CN(C)C1CCN(c2cnc(Nc3ncc4c5ccncc5n(C5CCCC5)c4n3)cn2)CC1	Cdk4/CyclinD1 (Homo sapiens (Human), UniProt P11802)	7.70
CNC1CCN(c2ccc(Nc3ncc4c5ccncc5n([C@H](C)CO)c4n3)nc2)CC1	Cdk4/CyclinD1 (Homo sapiens (Human), UniProt P11802)	6.58
C[C@@H](O)Cn1c2cnccc2c2cnc(Nc3ccc(N4CCNC(C)(C)C4)cn3)nc21	Cdk4/CyclinD1 (Homo sapiens (Human), UniProt P11802)	6.94
CN(CCO)C1CCN(c2ccc(Nc3ncc4c5ccncc5n(C5CCCC5)c4n3)nn2)CC1	Cdk4/CyclinD1 (Homo sapiens (Human), UniProt P11802)	8.24
O=C(c1ccc(Nc2ncc3c4ccncc4n(C4CCCC4)c3n2)nc1)N1CCNCC1	Cdk4/CyclinD1 (Homo sapiens (Human), UniProt P11802)	8.85

Kindly give each listed record's pIC50.
1. C[C@@H](CO)Nc1ccc(Nc2ncc3c4ccncc4n(C4CCCC4)c3n2)nn1
2. OCCCn1c2cnccc2c2cnc(Nc3ccc(N4CCNCC4)nn3)nc21

[8.26, 6.84]
